Reference for the values: ChEMBL document CHEMBL1255409

test system: Slackia exigua; experiment: Antimicrobial activity against Slackia exigua under anaerobic conditions after 44 hrs by CLSI-M11-47 protocol based agar dilution method; assay type: functional
Parameter: MIC50

Study these solved cases before continuing.
CCC[C@@H]1C[C@@H](C(=O)N[C@@H]([C@H]2O[C@H](SC)[C@H](O)[C@@H](O)[C@H]2O)[C@H](C)Cl)N(C)C1; 0.06 µg/mL
CO/N=C(\C(=O)N[C@@H]1C(=O)N2C(C(=O)O)=C(CSc3nc(=O)c(O)nn3C)CS[C@H]12)c1csc(N)n1; 0.5 µg/mL
Cc1ncc([N+](=O)[O-])n1CCO; 0.5 µg/mL

Now turn to the next compound.
[in] # query: MIC50 of entry CCO/N=C(\C(=O)N[C@@H]1C(=O)N2C(C(=O)[O-])=C(Sc3nc(-c4cc[n+](C)cc4)cs3)CS[C@H]12)c1nsc(NP(=O)(O)O)n1
[out] 0.125 µg/mL

====

test system: Peptoniphilus asaccharolyticus; assay: Antimicrobial activity against Peptoniphilus asaccharolyticus under anaerobic conditions after 44 hrs by CLSI-M11-47 protocol based agar dilution method; type: functional
MIC90 by entry:
Answer with a number only, understood to be in µg/mL.

Below, each entry is followed by its recorded MIC90 result.
Cc1ncc([N+](=O)[O-])n1CCO; 1
CO/N=C(\C(=O)N[C@@H]1C(=O)N2C(C(=O)O)=C(CSc3nc(=O)c(O)nn3C)CS[C@H]12)c1csc(N)n1; 0.25

// next entry
[in] Need MIC90 of CCO/N=C(\C(=O)N[C@@H]1C(=O)N2C(C(=O)[O-])=C(Sc3nc(-c4cc[n+](C)cc4)cs3)CS[C@H]12)c1nsc(NP(=O)(O)O)n1 , thanks.
[out] 0.25

====

test system: Fusobacterium necrophorum; experiment: Antimicrobial activity against Fusobacterium necrophorum under anaerobic conditions after 44 hrs by CLSI-M11-47 protocol based agar dilution method; type: functional
Entries and their MIC90
In your response, put the unit directly after the numeric value.

Recorded results for 3 compounds are shown here.
Cc1ncc([N+](=O)[O-])n1CCO; 0.25 µg/mL
CCC[C@@H]1C[C@@H](C(=O)N[C@@H]([C@H]2O[C@H](SC)[C@H](O)[C@@H](O)[C@H]2O)[C@H](C)Cl)N(C)C1; 0.06 µg/mL
CCO/N=C(\C(=O)N[C@@H]1C(=O)N2C(C(=O)[O-])=C(Sc3nc(-c4cc[n+](C)cc4)cs3)CS[C@H]12)c1nsc(NP(=O)(O)O)n1; 0.06 µg/mL

Please look at the following compound next.
[in] Would you mind telling me what MIC90 value was observed for CO/N=C(\C(=O)N[C@@H]1C(=O)N2C(C(=O)O)=C(CSc3nc(=O)c(O)nn3C)CS[C@H]12)c1csc(N)n1 ?
[out] 0.03 µg/mL

====

system: Actinomyces turicensis; test: Antimicrobial activity against Actinomyces turicensis under anaerobic conditions after 44 hrs by CLSI-M11-47 protocol based agar dilution method; type: functional; settings: Schaalia turicensis
Parameter: MIC50 (µg/mL)
Give the value, in units of µg/mL, as a plain number.

CO/N=C(\C(=O)N[C@@H]1C(=O)N2C(C(=O)O)=C(CSc3nc(=O)c(O)nn3C)CS[C@H]12)c1csc(N)n1; 0.125

[in] Sample CCC[C@@H]1C[C@@H](C(=O)N[C@@H]([C@H]2O[C@H](SC)[C@H](O)[C@@H](O)[C@H]2O)[C@H](C)Cl)N(C)C1 — what was its MIC50?
[out] 0.06

[in] Tell me the measured MIC50 of CCO/N=C(\C(=O)N[C@@H]1C(=O)N2C(C(=O)[O-])=C(Sc3nc(-c4cc[n+](C)cc4)cs3)CS[C@H]12)c1nsc(NP(=O)(O)O)n1 , please.
[out] 0.015

====

Listing of entries alongside the reported MIC50.
system: Prevotella tannerae; experiment: Antimicrobial activity against Prevotella tannerae under anaerobic conditions after 44 hrs by CLSI-M11-47 protocol based agar dilution method; type: functional; details: Alloprevotella tannerae
Number in µg/mL, nothing else.

[in] Can you look up the measured MIC50 of CO/N=C(\C(=O)N[C@@H]1C(=O)N2C(C(=O)O)=C(CSc3nc(=O)c(O)nn3C)CS[C@H]12)c1csc(N)n1 for me?
[out] 1

[in] Which MIC50 is reported for this compound? CCO/N=C(\C(=O)N[C@@H]1C(=O)N2C(C(=O)[O-])=C(Sc3nc(-c4cc[n+](C)cc4)cs3)CS[C@H]12)c1nsc(NP(=O)(O)O)n1
[out] 2

[in] // returns reported MIC50 for input Cc1ncc([N+](=O)[O-])n1CCO
[out] 0.5

====

Below, each entry is listed with its recorded MIC50.
test system: Clostridium celerecrescens; assay: Antimicrobial activity against Clostridium celerecrescens under anaerobic conditions after 44 hrs by CLSI-M11-47 protocol based agar dilution method; type: functional; details: Lacrimispora celerecrescens
Enter your answer as a number in µg/mL; do not include the unit.

Worked cases, answers included:
CCC[C@@H]1C[C@@H](C(=O)N[C@@H]([C@H]2O[C@H](SC)[C@H](O)[C@@H](O)[C@H]2O)[C@H](C)Cl)N(C)C1 [CLINDAMYCIN]; 2
CO/N=C(\C(=O)N[C@@H]1C(=O)N2C(C(=O)O)=C(CSc3nc(=O)c(O)nn3C)CS[C@H]12)c1csc(N)n1 [CEFTRIAXONE]; 2
CCO/N=C(\C(=O)N[C@@H]1C(=O)N2C(C(=O)[O-])=C(Sc3nc(-c4cc[n+](C)cc4)cs3)CS[C@H]12)c1nsc(NP(=O)(O)O)n1 [CEFTAROLINE FOSAMIL]; 0.5

Next:
[in] What value of MIC50 on Clostridium celerecrescens does Cc1ncc([N+](=O)[O-])n1CCO [METRONIDAZOLE] have?
[out] 0.5

====

test system: Mogibacterium timidum; assay: Antimicrobial activity against Mogibacterium timidum under anaerobic conditions after 44 hrs by CLSI-M11-47 protocol based agar dilution method; format: functional
Here, each record is paired with measured MIC90 data.
Field format: number, assumed µg/mL, no unit text.

Some compounds with known MIC90 results, for comparison:
Cc1ncc([N+](=O)[O-])n1CCO [METRONIDAZOLE]; 1
CCO/N=C(\C(=O)N[C@@H]1C(=O)N2C(C(=O)[O-])=C(Sc3nc(-c4cc[n+](C)cc4)cs3)CS[C@H]12)c1nsc(NP(=O)(O)O)n1 [CEFTAROLINE FOSAMIL]; 0.25
CCC[C@@H]1C[C@@H](C(=O)N[C@@H]([C@H]2O[C@H](SC)[C@H](O)[C@@H](O)[C@H]2O)[C@H](C)Cl)N(C)C1 [CLINDAMYCIN]; 2

Could you now look at the following compound, please?
[in] Consider the compound shown here: CO/N=C(\C(=O)N[C@@H]1C(=O)N2C(C(=O)O)=C(CSc3nc(=O)c(O)nn3C)CS[C@H]12)c1csc(N)n1 [CEFTRIAXONE] What is its recorded MIC90?
[out] 2

====

test system: Clostridium subterminale; experiment: Antimicrobial activity against Clostridium subterminale under anaerobic conditions after 44 hrs by CLSI-M11-47 protocol based agar dilution method; type: functional
Parameter: MIC50 (µg/mL)
Write it as a number; the unit µg/mL goes unstated.

Below, 3 compounds whose answers are already recorded.
Cc1ncc([N+](=O)[O-])n1CCO; 0.5
CCC[C@@H]1C[C@@H](C(=O)N[C@@H]([C@H]2O[C@H](SC)[C@H](O)[C@@H](O)[C@H]2O)[C@H](C)Cl)N(C)C1; 2
CCO/N=C(\C(=O)N[C@@H]1C(=O)N2C(C(=O)[O-])=C(Sc3nc(-c4cc[n+](C)cc4)cs3)CS[C@H]12)c1nsc(NP(=O)(O)O)n1; 0.5

[in] Look up MIC50: CO/N=C(\C(=O)N[C@@H]1C(=O)N2C(C(=O)O)=C(CSc3nc(=O)c(O)nn3C)CS[C@H]12)c1csc(N)n1
[out] 2

====

MIC50 by entry:
tested on: Anaerococcus vaginalis; test: Antimicrobial activity against Anaerococcus vaginalis under anaerobic conditions after 44 hrs by CLSI-M11-47 protocol based agar dilution method; assay type: functional
Answer in µg/mL, number only, no unit symbol.

Worked set:
CCO/N=C(\C(=O)N[C@@H]1C(=O)N2C(C(=O)[O-])=C(Sc3nc(-c4cc[n+](C)cc4)cs3)CS[C@H]12)c1nsc(NP(=O)(O)O)n1 [CEFTAROLINE FOSAMIL]; 0.06
CO/N=C(\C(=O)N[C@@H]1C(=O)N2C(C(=O)O)=C(CSc3nc(=O)c(O)nn3C)CS[C@H]12)c1csc(N)n1 [CEFTRIAXONE]; 0.25
CCC[C@@H]1C[C@@H](C(=O)N[C@@H]([C@H]2O[C@H](SC)[C@H](O)[C@@H](O)[C@H]2O)[C@H](C)Cl)N(C)C1 [CLINDAMYCIN]; 0.125

# context switch: different compound, same MIC50
[in] Item: Cc1ncc([N+](=O)[O-])n1CCO [METRONIDAZOLE] Test system: Anaerococcus vaginalis Read-out: MIC50 Value: ?
[out] 1
